- PROCEDURE_DETAILS: Stability test of QC samples in rat serum
- Format: in vitro ADME
- EXPERIMENTAL_CONTEXT: 25°C for 12 h, middle QC (nominal 384.38 / 150.00 / 43.20 / 39.38 ng/ml for compounds 1-4), n = 6
Please respond with reported Stability, mean concentration found for every item in the list.
Answers are plain numbers, in ng/mL.

- COC(=O)c1nccc2c1[nH]c1ccccc12: 42.21
- C=C1CC[C@@H]2[C@](C)(CO)[C@H](O)CC[C@@]2(C)[C@@H]1C/C=C1/C(=O)OC[C@H]1O [andrographolide]: 399.59
- C=C1CC[C@@H]2[C@](C)(CO)[C@H](O)CC[C@@]2(C)[C@H]1C/C=C1\C=COC1=O [dehydroandrographolide]: 153.93

Shifting focus to the compound that follows.
Ask | // lookup Stability, mean concentration found for COc1c(O)c(=O)n2c3ccccc3c3ccnc1c32 [4-methoxy-5-hydroxy-canthin-6-one]
Reply | 40.41

---

Provide the reported Stability, mean concentration found of each item.
- PROCEDURE_DETAILS: Stability test of QC samples in rat serum
- Type: in vitro ADME
- EXPERIMENTAL_CONTEXT: three freeze-thaw, high QC (nominal 4,000.00 / 1,500.00 / 450.00 / 400.00 ng/ml for compounds 1-4), n = 6
Give bare numbers, in ng/mL.

- COc1c(O)c(=O)n2c3ccccc3c3ccnc1c32 [4-methoxy-5-hydroxy-canthin-6-one]: 386.59

Shifting focus to the compound that follows.
Ask | Endpoint output: Stability, mean concentration found of `COC(=O)c1nccc2c1[nH]c1ccccc12` . Value?
Reply | 440.84

---

- PROCEDURE_DETAILS: Stability test of QC samples in rat serum
- Format: in vitro ADME
- EXPERIMENTAL_CONTEXT: 4°C for 24 h, middle QC (nominal 384.38 / 150.00 / 43.20 / 39.38 ng/ml for compounds 1-4), n = 6
- Experimental: Quality control (QC) samples at low, middle and high concentrations (61.50, 384.38, and 4,000.00 ng/ml for andrographolide; 24.00, 150.00, and 1,500.00 ng/ml for dehydroandrographolide; 6.91, 43.20, and 450.00 ng/ml for 1-methoxicabony-β-carboline; 6.30, 39.38, and 400.00 ng/ml for 4-methoxy-5-hydroxy-canthin-6-one) were also prepared by the same procedures. […]
Provide the reported Stability, mean concentration found of each item.
Numbers only, in ng/mL.

Provide Stability, mean concentration found for all items below, preserving their order.
1. C=C1CC[C@@H]2[C@](C)(CO)[C@H](O)CC[C@@]2(C)[C@@H]1C/C=C1/C(=O)OC[C@H]1O [andrographolide]
2. C=C1CC[C@@H]2[C@](C)(CO)[C@H](O)CC[C@@]2(C)[C@H]1C/C=C1\C=COC1=O [dehydroandrographolide]
3. COc1c(O)c(=O)n2c3ccccc3c3ccnc1c32 [4-methoxy-5-hydroxy-canthin-6-one]
4. COC(=O)c1nccc2c1[nH]c1ccccc12 [1-methoxicabony-β-carboline]

Reply |
383.22
156.59
39.35
44.64

---

Can you tell me AUC(0-inf) for the items I'm about to list?
- PROCEDURE_DETAILS: Pharmacokinetic study in control and DSS-induced UC rats after oral administration of LXF (serum, UPLC-MS/MS)
- Assay type: in vivo, Sprague-Dawley (SD) rats
- EXPERIMENTAL_CONTEXT: male, Sprague-Dawley, rat, serum, po, 3.3 g/kg, UC group (4% DSS for 7 days); oral LXF 3.30 g/kg; rat serum; n = 8; mean ± SD
Give bare numbers, in ng·h/mL.

Here is how some molecules turned out for AUC(0-inf).
* C=C1CC[C@@H]2[C@](C)(CO)[C@H](O)CC[C@@]2(C)[C@H]1C/C=C1\C=COC1=O [dehydroandrographolide] | 4790
* C=C1CC[C@@H]2[C@](C)(CO)[C@H](O)CC[C@@]2(C)[C@@H]1C/C=C1/C(=O)OC[C@H]1O [andrographolide] | 18400
* COC(=O)c1nccc2c1[nH]c1ccccc12 | 444

Pending molecule:
Ask | Reported AUC(0-inf) for COc1c(O)c(=O)n2c3ccccc3c3ccnc1c32 [4-methoxy-5-hydroxy-canthin-6-one] : what is it?
Reply | 817

---

Provide the reported Stability, mean concentration found of each item.
- PROCEDURE_DETAILS: Stability test of QC samples in rat serum
- Type: in vitro ADME
- EXPERIMENTAL_CONTEXT: 25°C for 12 h, high QC (nominal 4,000.00 / 1,500.00 / 450.00 / 400.00 ng/ml for compounds 1-4), n = 6

Here are 3 compounds together with their reported answers.
• C=C1CC[C@@H]2[C@](C)(CO)[C@H](O)CC[C@@]2(C)[C@H]1C/C=C1\C=COC1=O [dehydroandrographolide] = 1,439.13 ± 52.46 ng/ml
• COC(=O)c1nccc2c1[nH]c1ccccc12 = 439.66 ± 16.78 ng/mL
• COc1c(O)c(=O)n2c3ccccc3c3ccnc1c32 [4-methoxy-5-hydroxy-canthin-6-one] = 387.02 ± 9.84 ng/mL

Ask | Item under review: C=C1CC[C@@H]2[C@](C)(CO)[C@H](O)CC[C@@]2(C)[C@@H]1C/C=C1/C(=O)OC[C@H]1O [andrographolide] . Reported Stability, mean concentration found?
Reply | 3,896.61 ± 129.89 ng/ml

---

- PROCEDURE_DETAILS: Stability test of QC samples in rat serum
- Assay type: in vitro ADME
- EXPERIMENTAL_CONTEXT: −80°C for 30 days, middle QC (nominal 384.38 / 150.00 / 43.20 / 39.38 ng/ml for compounds 1-4), n = 6
- Experimental: Quality control (QC) samples at low, middle and high concentrations (61.50, 384.38, and 4,000.00 ng/ml for andrographolide; 24.00, 150.00, and 1,500.00 ng/ml for dehydroandrographolide; 6.91, 43.20, and 450.00 ng/ml for 1-methoxicabony-β-carboline; 6.30, 39.38, and 400.00 ng/ml for 4-methoxy-5-hydroxy-canthin-6-one) were also prepared by the same procedures. […]
OBSERVATION_TYPE: Stability, mean concentration found (ng/mL)
Give bare numbers, in ng/mL.

Recorded Stability, mean concentration found, per entry:
• COC(=O)c1nccc2c1[nH]c1ccccc12 = 42.66
• COc1c(O)c(=O)n2c3ccccc3c3ccnc1c32 [4-methoxy-5-hydroxy-canthin-6-one] = 42.93
• C=C1CC[C@@H]2[C@](C)(CO)[C@H](O)CC[C@@]2(C)[C@H]1C/C=C1\C=COC1=O [dehydroandrographolide] = 151.06

Field: next compound
Ask | What value of Stability, mean concentration found has been recorded for this entry: C=C1CC[C@@H]2[C@](C)(CO)[C@H](O)CC[C@@]2(C)[C@@H]1C/C=C1/C(=O)OC[C@H]1O [andrographolide]
Reply | 370.23

---

- PROCEDURE_DETAILS: Pharmacokinetic study in control and DSS-induced UC rats after oral administration of LXF (serum, UPLC-MS/MS)
- Type: in vivo, Sprague-Dawley (SD) rats
- EXPERIMENTAL_CONTEXT: male, Sprague-Dawley, rat, serum, po, 3.3 g/kg, control group; oral LXF 3.30 g/kg; rat serum; n = 8; mean ± SD; read-out: MRT0→∞
OBSERVATION_TYPE: MRT inf (h)
One number for each entry, in h.

Solved entries:
• C=C1CC[C@@H]2[C@](C)(CO)[C@H](O)CC[C@@]2(C)[C@H]1C/C=C1\C=COC1=O [dehydroandrographolide] = 5.04
• COC(=O)c1nccc2c1[nH]c1ccccc12 = 1.52
• C=C1CC[C@@H]2[C@](C)(CO)[C@H](O)CC[C@@]2(C)[C@@H]1C/C=C1/C(=O)OC[C@H]1O [andrographolide] = 8.42

Kindly consider the entry below.
Ask | Quick one: MRT inf for COc1c(O)c(=O)n2c3ccccc3c3ccnc1c32 [4-methoxy-5-hydroxy-canthin-6-one] ?
Reply | 3.59

---

- PROCEDURE_DETAILS: Pharmacokinetic study in control and DSS-induced UC rats after oral administration of LXF (serum, UPLC-MS/MS)
- Assay type: in vivo, Sprague-Dawley (SD) rats
- EXPERIMENTAL_CONTEXT: male, Sprague-Dawley, rat, serum, po, 3.3 g/kg, UC group (4% DSS for 7 days); oral LXF 3.30 g/kg; rat serum; n = 8; mean ± SD
OBSERVATION_TYPE: half-life (h)
One number for each entry, in h.

- COC(=O)c1nccc2c1[nH]c1ccccc12: 1.2
- COc1c(O)c(=O)n2c3ccccc3c3ccnc1c32 [4-methoxy-5-hydroxy-canthin-6-one]: 3.3
- C=C1CC[C@@H]2[C@](C)(CO)[C@H](O)CC[C@@]2(C)[C@H]1C/C=C1\C=COC1=O [dehydroandrographolide]: 2.86

API: the following record is the query input.
Ask | Any idea what half-life was measured for C=C1CC[C@@H]2[C@](C)(CO)[C@H](O)CC[C@@]2(C)[C@@H]1C/C=C1/C(=O)OC[C@H]1O [andrographolide] ?
Reply | 7.4
